Test system: OVCAR-5 ovarian
Assay: NCI tumour cell line growth inhibition, 48 h
TGI by entry:
PARAMETER_MEASURED: TGI

MOLECULE	ENDPOINT_VALUE
Nc1ncc(/C=N/O)c(NCC2(CO)CC(CCc3ccccc3)C2)n1 (stereo not drawn)	44.1 µM
N#CCCC1(CCC#N)CCCCCCC(CCC#N)(CCC#N)C(O)C1O (stereo not drawn)	> 100 µM
CC1(C)OC(COCCOCCCCCO)C(COCCOCCCCCO)O1 (stereo not drawn)	> 100 µM
O=C1/C(=C\c2cccc(Oc3ccccc3)c2)SC(c2ccccc2)N1c1cccc([N+](=O)[O-])c1 (stereo not drawn)	> 100 µM
C=CC(=O)Nc1cccc(Nc2nc(Nc3ccc(OCCOC(F)F)cc3)ncc2F)c1	> 100 µM
O=C(/C=C/c1cn(-c2ccccc2)nc1-c1ccc([N+](=O)[O-])cc1)c1ccc(Cl)cc1	> 100 µM
CC1(C)CCC2(C(=O)OC3OC(CO)C(O)C(O)C3O)CCC3(CO)C(=CCC4C5(C)CC(O)C(O)C(C)(C(=O)OC6OC(CO)C(O)C(O)C6O)C5CCC43C)C2C1 (stereo not drawn)	> 100 µM
Cc1ccccc1NC(=O)C(=O)CC(=O)c1ccc([N+](=O)[O-])cc1	> 100 µM
Nc1ncnc2c1c(-c1ccc(Oc3ccccc3)cc1)nn2C[C@@H]1SSC[C@@H]1O	26.2 µM
COc1ccc(CC2=NCCc3cc(OC)c(OC)cc32)cc1Br	8.32 µM
CC(=O)CC1(C)OC(N)=C(C#N)C1(C#N)C#N (stereo not drawn)	> 100 µM
O=[N+]([O-])/C=C/c1cn(CCCCCn2cc(/C=C/[N+](=O)[O-])c3ccccc32)c2ccccc12	32.3 µM
Cc1cc(NC(=O)NC(=O)c2ccccc2N(C)C)ccc1Oc1ncc(Br)cn1	> 67.5 µM
O=C(c1ccco1)C1CC(c2ccc3ccccc3c2O)=NN1c1ccc([N+](=O)[O-])cc1[N+](=O)[O-] (stereo not drawn)	> 100 µM
CC[C@@]1(O)C(=O)OCc2c1cc1n(c2=O)Cc2cc3c(N)cccc3nc2-1	1.1 µM
CC[C@H](C)[C@H](NC(=O)[C@H]1CCCCN1C)C(=O)N(C)[C@H](C[C@@H](OC(C)=O)c1nc(C(=O)N[C@@H](Cc2ccccc2)C[C@H](C)C(=O)OC)cs1)C(C)C	> 25 µM
CCOC1=C2NC(Cc3ccc(F)cc3)=NC2C(=O)c2ccccc21 (stereo not drawn)	> 100 µM
O=c1oc2ccc(F)cc2c(=O)n1-c1ccc(Br)cc1F	> 100 µM
Cc1n(Cc2ccc3ccccc3c2)c(Cl)c(Cl)[n+]1Cc1ccc2ccccc2c1	3.89 µM
COc1ccccc1/C=C\C(=O)c1ccccc1	32.5 µM
COc1ccc2[nH]c3c(=O)[nH]ncc3c2c1	> 100 µM
COC(=O)c1c(OC)cc2cc3c(c(O)c2c1C)C(=O)C1(O)C(=O)C=C(OC)C(OC(=O)CC(C)N)=C1C3=O (stereo not drawn)	> 100 µM
COc1ccc(/C=C/C(=O)C(C)(C)Br)cc1	28.1 µM
COc1ccc(C=Nc2ccc(-c3nc4ccccc4[nH]3)cc2)cc1OC	> 100 µM
COc1ccc(/C=C(/C(=O)n2cnnn2)c2cc(OC)c(OC)c(OC)c2)cc1	> 100 µM
CC(=O)NC1=C(NCC(C)C)C(=O)c2ccccc2C1=O	> 100 µM
CCCCCCCCCCCCCCCCS(=O)(=O)c1ccc(NN)cc1	> 10 µM
O=P(O)(O)CN1CCNCCN(CP(=O)(O)O)CCNCC1	> 100 µM
Cn1cc(CO)c2ccccc21	> 100 µM
CC12CC(c3ccccc3O1)C(C(=O)Nc1cccc(F)c1)C(=O)N2 (stereo not drawn)	> 100 µM
C/C(=N\n1c(N)c(C#N)c(-c2ccc(Cl)cc2)c(C#N)c1=O)c1ccncc1	> 100 µM
C[C@@H]1C/C=C\C(=O)O[C@H](/C=C/C#C/C=C/C(C)(C)[C@@H](O)c2cccc(O)c2Br)[C@@H](C)/C=C/[C@H](C)C[C@H](OC(N)=O)C1	18.3 µM
COc1cc2nnn3c4ncccc4c(N=O)c3c2cc1OC	> 64.6 µM
O=C(CCN1CCCC1)Nc1ccc2c(Nc3ccccc3)c3ccccc3nc2c1	4.4 µM
O=C(O)C1C2C=CC(O2)C1C(=O)Nc1ncccn1 (stereo not drawn)	> 100 µM
NC(=O)C1=CC2C3C=CC2(O)C(=O)OC3O1 (stereo not drawn)	> 64.5 µM
Fc1c[c-]c(-c2ccccn2)c(F)c1.[CH3-].[Pt+2].c1ccc(P(C[PH+](c2ccccc2)c2ccccc2)c2ccccc2)cc1	2.54 µM
O=c1[nH]c2cc(Cl)c(Cl)cc2n2cc3ccccc3c12	30.8 µM
